System: SHSY5Y (human neuroblastoma)
assay_summary: MTT cytotoxicity assay, SHSY5Y
Type: cell-based
assay_conditions: Homo sapiens, SH-SY5Y, 48 h incubation
Entries and their pIC50
The value called pIC50 is obtained by taking minus log10 of the concentration in mol/L.

Q) Please look up its pIC50: O=S1(=O)C=Cc2cc(-n3cc(-c4ccc(Cl)cc4)nn3)ccc2O1 [Compound 1a]
A) 4.66

# next molecule below
Q) Please look up its pIC50: O=S1(=O)C=Cc2cc(-c3nnnn3-c3ccccc3)ccc2O1 [Compound 1c]
A) 4.74

* * *

Entries and their pIC50
Test system: MCF-7 (breast adenocarcinoma)
assay_summary: MTT cytotoxicity assay, MCF-7
Type: cell-based, human
assay_conditions: Homo sapiens, MCF7, 48 h incubation
The value called pIC50 is obtained by taking minus log10 of the concentration in mol/L.

Q) Please look up its pIC50: O=S1(=O)C=Cc2cc(-c3nnnn3-c3ccccc3)ccc2O1
A) 4.00

Q) How about this molecule: O=S1(=O)C=Cc2cc(-n3cc(-c4ccc(Cl)cc4)nn3)ccc2O1
A) 5.74

* * *

Entries and their Ki
system_under_test: hCA XII (Homo sapiens, UniProt O43570)
Construct: made in house
Sequence (O43570 25-354): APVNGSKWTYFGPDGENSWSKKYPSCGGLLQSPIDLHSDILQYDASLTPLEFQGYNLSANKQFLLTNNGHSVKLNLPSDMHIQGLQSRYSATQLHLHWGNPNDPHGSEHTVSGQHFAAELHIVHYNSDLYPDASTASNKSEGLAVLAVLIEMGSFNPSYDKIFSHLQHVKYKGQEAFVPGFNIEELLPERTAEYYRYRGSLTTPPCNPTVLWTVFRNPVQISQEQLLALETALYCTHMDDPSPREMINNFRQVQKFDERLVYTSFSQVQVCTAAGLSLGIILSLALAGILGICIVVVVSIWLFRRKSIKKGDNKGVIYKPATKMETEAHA
assay_summary: Stopped-flow CO2 hydration CA inhibition assay, hCA XII
Type: biochemical
assay_conditions: recombinant enzyme, 15 min pre-incubation
Value expressed in nM; do not type the unit.

Q) Please look up its Ki: O=S1(=O)C=Cc2cc(-n3cc(-c4ccc(Cl)cc4)nn3)ccc2O1
A) 17.7

# next molecule below
Q) Please look up its Ki: O=S1(=O)C=Cc2cc(-c3nnnn3-c3ccccc3)ccc2O1
A) 7.1
